// data source = the supplement of paper PMC10567573

B1: SNAP91 (parent)
chain: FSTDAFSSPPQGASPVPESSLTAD

Variants of: B1
Assay: protein stability index of a GFP-peptide fusion (GPS, HEK-293T) (PSI 1-6); higher = more stable;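 also: lentivirally expressed fusions sorted by FACS into six bins by GFP to DsRed ratio, PSI derived from sequencing read proportions per bin multiplied by bin number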
Settings: c terminus: a fixed tail appended
Rule: Yes for protein stability index not less than 3, No for anything less.

{"MUTANT LABEL": "S8N", "CLASS NAME": "No"}

Would you say A13K shows protein stability index at minimum 3?
No

Would you say V16H shows protein stability index at minimum 3?
Yes

Would you say G12T shows protein stability index at minimum 3?
Yes

Would you say L21R shows protein stability index at minimum 3?
Yes

Would you say Q11D shows protein stability index at minimum 3?
Yes

Would you say A13H shows protein stability index at minimum 3?
Yes

Would you say S19G shows protein stability index at minimum 3?
No

Would you say S7E shows protein stability index at minimum 3?
Yes

Would you say F6H shows protein stability index at minimum 3?
Yes

Would you say P17Q shows protein stability index at minimum 3?
Yes

Would you say S7V shows protein stability index at minimum 3?
No

Would you say P9S shows protein stability index at minimum 3?
Yes

Would you say T3Y shows protein stability index at minimum 3?
Yes

Would you say F6D shows protein stability index at minimum 3?
Yes

Would you say S2H shows protein stability index at minimum 3?
No
